Hey, just so you know, these numbers are from patent US20240270821A1.

// pEC50 lookup, one value per entry
STUDY_TARGET: hGLP-1R (Homo sapiens)
Sequence (P43220 24-463): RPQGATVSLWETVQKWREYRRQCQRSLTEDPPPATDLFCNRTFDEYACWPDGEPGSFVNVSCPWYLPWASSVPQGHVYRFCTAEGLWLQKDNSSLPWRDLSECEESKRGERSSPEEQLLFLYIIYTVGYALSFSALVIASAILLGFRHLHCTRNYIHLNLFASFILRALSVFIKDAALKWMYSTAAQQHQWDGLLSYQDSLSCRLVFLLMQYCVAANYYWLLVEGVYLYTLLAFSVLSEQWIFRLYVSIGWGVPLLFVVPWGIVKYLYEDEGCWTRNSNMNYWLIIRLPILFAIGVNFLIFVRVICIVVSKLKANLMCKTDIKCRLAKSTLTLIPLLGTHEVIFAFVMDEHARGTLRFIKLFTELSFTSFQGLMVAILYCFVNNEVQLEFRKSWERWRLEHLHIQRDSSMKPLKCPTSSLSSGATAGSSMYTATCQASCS
MEASUREMENT_DESCRIPTION: Functional cAMP activation in the presence of 0.1% casein (no HSA);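 further: intracellular cAMP rise after 30 min at 37 °C read by HTRF, normalized between buffer only (0%) and maximal control ligand (100%), four-parameter variable-slope fit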
Type: cell-based
CONDITION_LABEL: read-out: Relative cAMP EC50, hGLP-1R
Starred links: 1 amine or outer side, 2 acyl side, 3 side chain; linkers in the order of their positions; H or OH if unused. Non-standard residues stand in square brackets, D forms with d. Groups on a side chain read outwards from the residue. No end group written: not given here. *: point of attachment. C18 diacid = O=C(O)CCCCCCCCCCCCCCCCC(=O)*; αMePhe(2-F) = C[C@](N)(Cc1ccccc1F)C(=O)O; γGlu = O=C(O)[C@H](CCC(=O)[*:2])N[*:1]; αMe4Pal = C[C@](N)(Cc1ccncc1)C(=O)O; αMeY = C[C@](N)(Cc1ccc(O)cc1)C(=O)O; 4Pal = N[C@@H](Cc1ccncc1)C(=O)O; αMeL = CC(C)C[C@](C)(N)C(=O)O; αMeS = C[C@](N)(CO)C(=O)O; Orn = NCCC[C@H](N)C(=O)O; AEEA = NCCOCCOCC(=O)O; Aib = CC(C)(N)C(=O)O
Convention used: pEC50 is expressed as -log10 of the molar concentration.

Use these answered entries as a reference point.
| SUBSTANCE | pEC50 |
| --- | --- |
| H-Y[Aib]QGT[αMePhe(2-F)]TSD[4Pal][αMeS]I[αMeL]LD[Orn]K([AEEA-γGlu-C18 diacid])AQ[αMe4Pal]EFI[dE][αMeY]LVEGGPSSGEPPPSGE-NH2 [Example 750] | 9.52 |
| H-Y[Aib]QGT[αMePhe(2-F)]TSD[4Pal][αMeS]I[αMeL]LD[Orn]K([γGlu-γGlu-C18 diacid])AA[Aib]EFI[dE][αMeY]LIEGGPSSGAPPPSGGGE-NH2 [Example 747] | 9.64 |

Continue with the substance presented below.
For reference, reported pEC50 for Y[Aib]QGT[αMePhe(2-F)]TSD[4Pal][αMeS]I[αMeL]LD[Orn]K([γGlu-γGlu-C18 diacid])AA[Aib]EFI[dE][αMeY]LIEGGPSSGEPPPSGGGE-NH2 [Example 748] stands at 9.59

====

STUDY_TARGET: human GcgR (Homo sapiens, UniProt P47871)
Sequence (P47871 26-477): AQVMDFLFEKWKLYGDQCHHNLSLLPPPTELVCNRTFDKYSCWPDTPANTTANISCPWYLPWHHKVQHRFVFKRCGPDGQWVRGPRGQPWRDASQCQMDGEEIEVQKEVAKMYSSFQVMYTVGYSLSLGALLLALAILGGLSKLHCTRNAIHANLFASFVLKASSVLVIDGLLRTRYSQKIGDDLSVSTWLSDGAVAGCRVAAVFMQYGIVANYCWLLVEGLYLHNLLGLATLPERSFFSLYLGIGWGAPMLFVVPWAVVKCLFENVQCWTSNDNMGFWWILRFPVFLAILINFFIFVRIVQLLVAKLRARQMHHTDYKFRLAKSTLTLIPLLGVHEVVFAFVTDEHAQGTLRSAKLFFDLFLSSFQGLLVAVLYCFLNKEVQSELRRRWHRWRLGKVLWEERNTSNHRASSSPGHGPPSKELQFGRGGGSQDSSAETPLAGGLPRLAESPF
MEASUREMENT_DESCRIPTION: Functional cAMP activity in the presence of 1% HSA
Format: cell-based
CONDITION_LABEL: read-out: cAMP Rel EC50, hGcgR
Starred links: 1 amine or outer side, 2 acyl side, 3 side chain; linkers in the order of their positions; H or OH if unused. Non-standard residues stand in square brackets, D forms with d. Groups on a side chain read outwards from the residue. No end group written: not given here. *: point of attachment. C18 diacid = O=C(O)CCCCCCCCCCCCCCCCC(=O)*; αMePhe(2-F) = C[C@](N)(Cc1ccccc1F)C(=O)O; γGlu = O=C(O)[C@H](CCC(=O)[*:2])N[*:1]; αMe4Pal = C[C@](N)(Cc1ccncc1)C(=O)O; αMeY = C[C@](N)(Cc1ccc(O)cc1)C(=O)O; 4Pal = N[C@@H](Cc1ccncc1)C(=O)O; αMeL = CC(C)C[C@](C)(N)C(=O)O; αMeS = C[C@](N)(CO)C(=O)O; Orn = NCCC[C@H](N)C(=O)O; AEEA = NCCOCCOCC(=O)O; Aib = CC(C)(N)C(=O)O
Here the recorded EC50 is given for each entry.
Just the number in µM, nothing appended.

Sample answers from the record:
| SUBSTANCE | STUDY_TARGET | SCALE_UNIT | EC50 |
| --- | --- | --- | --- |
| Y[Aib]QGTFTSD[4Pal]SQ[αMeL]LDKK([dE-γGlu-C18 diacid])AQ[αMe4Pal]AFIEYLIE[Aib]GPSSGAPPPSGSE-NH2 [Example 924] | human GcgR (Homo sapiens, UniProt P47871) | µM | 0.91 |
| H-Y[Aib]QGT[αMePhe(2-F)]TSD[4Pal][αMeS]I[αMeL]LD[Orn]K([AEEA-AEEA-γGlu-C18 diacid])AQ[Aib][Orn]FI[dE][αMeY]LIEGGPSSGAPEPSEG-NH2 [Example 472] | human GcgR (Homo sapiens, UniProt P47871) | µM | 0.229 |
| H-Y[Aib]QGTFTSDFS[Orn][αMeL]LDKK([AEEA-γGlu-C18 diacid])AQ[Aib]AFIEWLLEGGHSSGEPPPEGS-NH2 [Example 127] | human GcgR (Homo sapiens, UniProt P47871) | µM | 1.01 |
| H-Y[Aib]QGTFTSD[4Pal]SK[αMeL]LDKK([γGlu-γGlu-C18 diacid])AQ[Aib]AFIEYLIE[Aib]GPSSGAPPPSGSEEE-NH2 [Example 906] | human GcgR (Homo sapiens, UniProt P47871) | µM | 1.17 |

Alright, here's another substance for you.
Form: item H-Y[Aib]QGT[αMePhe(2-F)]TSD[4Pal][αMeS]I[αMeL]LD[Orn]K([γGlu-γGlu-C18 diacid])AQ[Aib][Orn]FI[dE][αMeY]LAEGGPSSGEPPPSGEEE-NH2 [Example 592] ; test system human GcgR (Homo sapiens, UniProt P47871); EC50: 0.195
